Origin of the recorded values: patent US20150307617A1

Biological target: T1, Human OX40 (Sino Biological Inc) (human, UniProt P43489 29-216, limits assumed)
T1 construct: Bought soluble protein used as SPR analyte; also called huOX40
T1 sequence: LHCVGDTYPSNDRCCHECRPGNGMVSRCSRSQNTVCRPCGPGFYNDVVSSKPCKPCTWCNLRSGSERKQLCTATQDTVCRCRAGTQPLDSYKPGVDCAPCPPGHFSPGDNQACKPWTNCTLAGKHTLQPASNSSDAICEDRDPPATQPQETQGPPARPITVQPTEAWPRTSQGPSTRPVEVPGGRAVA
Assay: SPR (Biacore), antibody captured via anti-human Fc, huOX40 analyte
Here the recorded koff is given for each entry.
attribute.measured: koff (s⁻¹)

binder	value
1A7.gr.7′ (antibody, V domains shown, human Fc) VH: EVQLVQSGAEVKKPGASVKVSCKASGYTFTDSYMSWVRQAPGQGLEWIGDMYPDNGDSSYNQKFRERVTLTVDTSTSTAYLELSSLRSEDTAVYYCVLAPRWYFSVWGQGTLVTVSS VL: DIQMTQSPSSLSASVGDRVTITCRASQDISNYLNWYQQKPGKTVKLLIYYTSRLRSGVPSRFSGSGSGKDYTLTISSLQPEDFATYFCQQGHTLPPTFGQGTKVEIK	0.000145
3C8.gr.DA (antibody, V domains shown, also called 3C8.gr.5.DA) VH: EVQLVQSGAEVKKPGASVKVSCKASGYAFTNYLIEWVRQAPGQGLEWIGVINPGSGDAYYSEKFKGRVTLTADTSTSTAYLELSSLRSEDTAVYYCARDRLDYWGQGTLVTVSS VL: DIQMTQSPSSLSASVGDRVTITCHASQDISSYIVWYQQKPGKSFKGLIYHGTNLEDGVPSRFSGSGSGTDFTLTISSLQPEDFATYYCVHYAQFPYTFGQGTKVEIK	0.00502
3C8.gr.5.QG (antibody, V domains shown) VH: EVQLVQSGAEVKKPGASVKVSCKASGYAFTNYLIEWVRQAPGQGLEWIGVINPGSGDTYYSEKFKGRVTLTADTSTSTAYLELSSLRSEDTAVYYCARDRLDYWGQGTLVTVSS VL: DIQMTQSPSSLSASVGDRVTITCHASQDISSYIVWYQQKPGKSFKGLIYHGTNLEQGVPSRFSGSGSGTDFTLTISSLQPEDFATYYCVHYAQFPYTFGQGTKVEIK	0.000534
